Cited source: patent US20180057604A1

Target: T1, cyno TfR extracellular domain (analogous construct to human TfR ecd) (cynomolgus monkey, UniProt Q5RDH6 87-760 (Pongo abelii entry))
T1 construct: also called cynoTfR ecd
T1 chain: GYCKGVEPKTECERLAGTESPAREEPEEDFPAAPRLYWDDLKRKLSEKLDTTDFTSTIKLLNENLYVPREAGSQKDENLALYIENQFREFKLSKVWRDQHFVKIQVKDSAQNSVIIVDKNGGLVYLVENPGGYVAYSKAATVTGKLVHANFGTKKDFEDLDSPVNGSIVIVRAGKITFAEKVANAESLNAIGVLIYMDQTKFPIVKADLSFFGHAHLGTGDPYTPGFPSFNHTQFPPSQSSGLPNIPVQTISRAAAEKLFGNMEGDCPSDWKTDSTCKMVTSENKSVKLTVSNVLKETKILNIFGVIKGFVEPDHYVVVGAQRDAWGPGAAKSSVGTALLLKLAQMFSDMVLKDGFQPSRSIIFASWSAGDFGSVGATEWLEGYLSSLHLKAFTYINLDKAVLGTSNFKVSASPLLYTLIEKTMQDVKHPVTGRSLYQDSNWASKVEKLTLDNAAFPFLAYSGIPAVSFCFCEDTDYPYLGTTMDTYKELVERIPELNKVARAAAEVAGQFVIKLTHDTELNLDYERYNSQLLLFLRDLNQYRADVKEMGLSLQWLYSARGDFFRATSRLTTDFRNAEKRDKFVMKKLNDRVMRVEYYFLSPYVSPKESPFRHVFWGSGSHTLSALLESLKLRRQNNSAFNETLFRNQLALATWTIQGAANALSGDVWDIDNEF
Experiment: SPR, IgG;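 also: His-tagged TfR captured via immobilized anti-His antibody on a CM5 chip, antibody injected in 3-fold dilution series by single cycle kinetics, 1:1 Langmuir or steady-state fit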
property-name: Kd (nM)
Record the value in nM, omitting the unit from your answer.

Study these solved cases before continuing.
hu7A4.v11 (antibody, V domains shown, IgG) VH: EVQLVQSGAEVKKPGASVKVSCKASGYTFTDYAMHWVRQAPGQGLEWMGGISTYFGRTNYNQKFKGRVTMTVDTSISTAYMELSRLRSDDTAVYYCARGLSGNYVMDYWGQGTTVTVSS VL: DIVMTQSPDSLAVSLGERATINCRASESVDSYGNSFMHWYQQKPGQPPKLLIYRASNLESGVPDRFSGSGSRTDFTLTISSLQAEDVAVYYCQQSNEGPPTFGQGTKLEIK: 0.943
hu7A4.v9 (antibody, V domains shown, IgG) VH: EVQLVQSGAEVKKPGASVKVSCKASGYTFTDYAMHWVRQAPGQGLEWMGGISTYFGRTNYNQKFKGRVTMTRDTSISTAYMELSRLRSDDTAVYYCARGLSGNYVMDYWGQGTTVTVSS VL: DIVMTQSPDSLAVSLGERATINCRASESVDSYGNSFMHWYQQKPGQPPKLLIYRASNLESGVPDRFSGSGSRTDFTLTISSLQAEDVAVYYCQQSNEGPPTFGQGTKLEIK: 0.428
hu7A4.v7 (antibody, V domains shown, IgG) VH: EVQLVQSGAEVKKPGASVKVSCKASGYTFTDYAMHWVRQAPGQGLEWMGGISTYFGRTNYNQKFKGRVTMTVDTSISTAYMELSRLRSDDTAVYYCARGLSGNYVMDYWGQGTTVTVSS VL: DIVMTQSPDSLAVSLGERATINCRASESVDSYGNSFMHWYQQKPGQPPKLLIYRASNLESGIPDRFSGSGSGTDFTLTISSLQAEDVAVYYCQQSNEGPPTFGQGTKLEIK: 1.18
16F6 (antibody, V domains shown, Mouse hybridoma antibody; also called clone 16F6) VH: DVQLQESGPGLVKPSQSLSLTCTVTGNSITSEYAWNWIRQFPGNKLEWMGYISYSGTTSYNPSLKSRISITRDTSKNQLFLQLNSVTTEDTATYFCARYGYGNPATRYFDVWGAGTTVTVSS VL: DVQITQSPSYLTASPGETITINCRASKSISKYLAWYQEKPGKTNKLLIYSGSTLQSGIPSRFSGSGSGTDFTLTISNLEPEDFAMYYCQQHNEYPWTFGGGTKLEIK: 7.45

Now look at this entry.
Query: # get_value(readout='Kd', item= hu16F6.v3 (antibody, V domains shown, IgG; HC 71 V, 78 F) VH: EVQLVESGPGLVKPSETLSLTCTVSGNSITSEYAWNWIRQPPGKGLEWIGYISYSGTTSYNPSLKSRVTISVDTSKNQFSLKLSSVTAADTAVYYCARYGYGNPATRYFDVWGQGTLVTVSS VL: DIQMTQSPSSLSASVGDRVTITCRASKSISKYLAWYQQKPGKTNKLLLYSGSTLQSGVPSRFSGSGSGTDYTLTISSLQPEDFATYYCQQHNEYPWTFGQGTKVEIK )
Reply: 34.5
